systemUnderTest: T1, GDF15 mutant M253R (wrist region), albumin fusion (human, UniProt Q99988 195-308)
T1 construct: not shown: albumin fusion partner
T1 chain: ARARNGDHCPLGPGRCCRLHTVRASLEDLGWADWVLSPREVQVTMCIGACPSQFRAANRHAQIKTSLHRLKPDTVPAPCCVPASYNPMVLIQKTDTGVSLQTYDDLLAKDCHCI
protocol: direct ELISA on coated albumin-fusion GDF15 variant
testReadout: binding result

{"binder": "ABGDF15-D (antibody, human IgG1, lambda, V domains shown, captured through anti-human Fc in the Biacore assay) VH: EVQLVQSGAEVKKPGESLKISCKGSGYSFTSYWIGWVRQMPGKGLEWMGVIDPDGSYTIYSPSFQGQVTISADKSISTAYLQWSSLKASDTAMYYCARYGRYGTYFDYWGQGTLVTVSS VL: QSVLTQPPSVSGAPGQRVTISCSGSSSNIGVLYVNWYQQLPGTAPKLLIYSNDNRPSGVPDRFSGSKSGTSASLAITGLQAEDEADYYCQSWDSSSNYVFGGGTKLTVLG", "binding result": "binds"}
{"binder": "ABGDF15-B (antibody, human IgG1, lambda, V domains shown, captured through anti-human Fc in the Biacore assay) VH: QVQLVQSGAEVKKPGSSVKVSCKASGGTFRSYAVSWVRQAPGQGLEWMGGIIPIFGTANYAQKFQGRVTITADESTSTAYMELSSLRSEDTAVYYCARGPIIMGYQFGLFDHWGQGTLVTVSS VL: SYELTQPLSVSVALGQTARITCSGDNIGSHIVSWYQQKPGQAPVLVIYDKSNRPSGIPERFSGSNSGNTATLTISRAQAGDEADYYCQTWDSIGSVVFGGGTKLTVLG", "binding result": "binds"}
{"binder": "ABGDF15-A (antibody, human IgG1, kappa, V domains shown, captured through anti-human Fc in the Biacore assay) VH: EVQLVQSGAEVKKPGESLKISCKGSGYSFTDYWISWVRQMPGKGLEWMGIIDPSGSYTIYSPSFQGQVTISADKSISTAYLQWSSLKASDTAMYYCARVSYYGGYFDIWGQGTLVTVSS VL: DIQMTQSPSSLSASVGDRVTITCRASQSISNNLNWYQQKPGKAPKLLIYAASNLQSGVPSRFSGSGSGTDFTLTISSLQPEDFATYYCFQLDHSPFTFGQGTKVEIKR", "binding result": "binds"}
{"binder": "ABGDF15-C (antibody, human IgG1, lambda, V domains shown, captured through anti-human Fc in the Biacore assay) VH: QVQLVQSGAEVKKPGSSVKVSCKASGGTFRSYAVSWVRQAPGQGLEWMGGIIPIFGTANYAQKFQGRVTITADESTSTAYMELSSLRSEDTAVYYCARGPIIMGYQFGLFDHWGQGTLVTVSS VL: SYELTQPPSVSVSPGQTASITCSGDNIGSHIVSWYQQKPGQSPVLVIYDKSNRPSGIPERFSGSNSGNTATLTISGTQAMDEADYYCQTWDSIGSVVFGGGTKLTVLG", "binding result": "binds"}
{"binder": "ABGDF15-G (antibody, human IgG1, kappa, V domains shown, captured through anti-human Fc in the Biacore assay) VH: QVQLVQSGAEVKKPGSSVKVSCKASGGTFSSHYINWVRQAPGQGLEWMGGIIPAFGGANYAQKFQGRVTITADESTSTAYMELSSLRSEDTAVYYCARFGSVYVSRYSSYYHMDVWGQGTLVTVSS VL: DIQMTQSPSSLSASVGDRVTITCRASQTIYRSLAWYQQKPGKAPKLLIYGASILQSGVPSRFSGSGSGTDFTLTISSLQPEDFATYYCLQRYTSPFTFGQGTKVEIKR", "binding result": "binds"}

Consider ABGDF15-E (antibody, human IgG1, lambda, V domains shown, captured through anti-human Fc in the Biacore assay) VH: EVQLVQSGAEVKKPGESLKISCKGSGYSFTSYWIGWVRQMPGKGLEWMGVIDPGGSYTIYSPSFQGQVTISADKSISTAYLQWSSLKASDTAMYYCARYGRYGTYFDYWGQGTLVTVSS VL: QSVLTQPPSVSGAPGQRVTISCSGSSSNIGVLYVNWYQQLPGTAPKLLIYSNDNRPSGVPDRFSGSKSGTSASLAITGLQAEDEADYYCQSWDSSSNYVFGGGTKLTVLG . Its measured binding result is binds

Consider ABGDF15-F (antibody, human IgG1, lambda, V domains shown, captured through anti-human Fc in the Biacore assay) VH: EVQLVQSGAEVKKPGESLKISCKGSGYSFTSYWIGWVRQMPGKGLEWMGVIDPSGSYTIYSPSFQGQVTISADKSISTAYLQWSSLKASDTAMYYCARYGRYGTYFDYWGQGTLVTVSS VL: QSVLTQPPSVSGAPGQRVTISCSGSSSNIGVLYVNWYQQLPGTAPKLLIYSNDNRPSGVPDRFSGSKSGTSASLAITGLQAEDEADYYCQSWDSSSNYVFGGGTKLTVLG . Its measured binding result is binds
